// provenance: paper PMC2836553

# targetSystem: T1, XPF-wt (Saccharolobus (Sulfolobus) solfataricus, UniProt Q7LXL5 1-233)
# T1 sequence: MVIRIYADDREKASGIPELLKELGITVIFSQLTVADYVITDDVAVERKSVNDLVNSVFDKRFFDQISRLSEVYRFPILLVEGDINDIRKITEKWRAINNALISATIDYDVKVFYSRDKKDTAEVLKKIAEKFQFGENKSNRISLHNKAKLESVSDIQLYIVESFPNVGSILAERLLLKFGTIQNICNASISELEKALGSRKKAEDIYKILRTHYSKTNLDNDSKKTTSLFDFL
# measurementDescription: FRET
reportedProperty: pKd
Lab note — pKd values are minus log10 of concentrations in M.

Qu. // pKd lookup, key: 3' flap, three vectors (global fit) (structured_DNA, dye positions as in Flap-12, Flap-13 and Flap-23) DNA 1: AGCCCGACAGCAGTCAGAGCTTGCTAGGACGGACGGT DNA 2: ACCGTCCGTCCTAGCAAGCATTTTTTT DNA 3: TCTGACTGCTGTCGGGCT
Ans. 5.28
